We begin with a simple list: items and their reported Percentage reduction of GPC3 on cell surface (%), Huh7 cells, 0.5 h.
measured-target: human GPC3 (Glypican-3) (human, UniProt P51654 25-580)
Sequence (P51654 25-580, form in doubt): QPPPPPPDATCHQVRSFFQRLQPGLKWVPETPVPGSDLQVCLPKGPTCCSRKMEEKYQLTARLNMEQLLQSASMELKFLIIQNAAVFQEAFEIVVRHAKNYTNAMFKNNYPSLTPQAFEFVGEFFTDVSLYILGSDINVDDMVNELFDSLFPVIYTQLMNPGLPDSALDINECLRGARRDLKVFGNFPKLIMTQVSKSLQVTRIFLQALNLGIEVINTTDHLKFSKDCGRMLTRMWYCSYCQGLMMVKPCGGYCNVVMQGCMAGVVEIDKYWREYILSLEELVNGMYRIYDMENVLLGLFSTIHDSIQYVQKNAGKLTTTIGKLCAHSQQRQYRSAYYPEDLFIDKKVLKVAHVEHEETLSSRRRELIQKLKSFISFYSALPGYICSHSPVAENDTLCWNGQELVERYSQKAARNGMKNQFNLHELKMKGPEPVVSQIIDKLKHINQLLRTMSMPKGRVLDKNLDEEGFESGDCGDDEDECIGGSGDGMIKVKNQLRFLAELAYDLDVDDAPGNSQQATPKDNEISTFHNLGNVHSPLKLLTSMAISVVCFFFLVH
protocol-details: cell-based or functional assay
Field: numeric (%). Do not append units.

# binder, endpoint-unit, reading
data = [
    ("Hu 52H5D3B8-8-mcc-AAN-Exatecan (ADC-2) (antibody, human IgG1, kappa, DAR 8.0, V domains shown, mcc-AAN-Exatecan on cysteine thiols freed by reduction of interchain disulfide bonds; DAR 8.0 for the whole antibody; positions not given, also called Hu 52H5D3B8-8-MCC-AAN-Exa (ADC-2)) VH: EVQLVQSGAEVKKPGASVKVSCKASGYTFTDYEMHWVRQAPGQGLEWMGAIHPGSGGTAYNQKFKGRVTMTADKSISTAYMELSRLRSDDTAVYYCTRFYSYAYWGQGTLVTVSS VL: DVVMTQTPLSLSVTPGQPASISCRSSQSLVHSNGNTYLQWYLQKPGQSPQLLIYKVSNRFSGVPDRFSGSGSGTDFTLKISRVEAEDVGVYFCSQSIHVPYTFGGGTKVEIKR", "%", 20.5),
    ("Hu 52H5D3B8-8-mc-AAN-Exatecan (ADC-1) (antibody, human IgG1, kappa, DAR 8.0, V domains shown, mc-AAN-Exatecan on cysteine thiols freed by reduction of interchain disulfide bonds; DAR 8.0 for the whole antibody; positions not given, also called Hu 52H5D3B8-8-MC-AAN-Exa (ADC-1)) VH: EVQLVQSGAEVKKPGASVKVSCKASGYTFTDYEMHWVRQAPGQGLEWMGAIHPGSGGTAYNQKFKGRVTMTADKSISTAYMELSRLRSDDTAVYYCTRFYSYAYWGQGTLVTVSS VL: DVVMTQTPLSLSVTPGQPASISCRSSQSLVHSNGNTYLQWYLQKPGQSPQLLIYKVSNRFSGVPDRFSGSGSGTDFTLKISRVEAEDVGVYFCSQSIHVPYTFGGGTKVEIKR", "%", 17.9),
]

Kindly consider the entry below.
Retrieve Percentage reduction of GPC3 on cell surface (%), Huh7 cells, 0.5 h measured for Hu 52H5D3B8-8 (antibody, human IgG1, kappa, V domains shown, also called humanized GPC3 antibody Hu 52H5D3B8-8; GPC3 antibody) VH: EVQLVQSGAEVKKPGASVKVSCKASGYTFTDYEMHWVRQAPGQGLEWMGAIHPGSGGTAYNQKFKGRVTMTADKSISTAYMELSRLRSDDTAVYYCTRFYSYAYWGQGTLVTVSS VL: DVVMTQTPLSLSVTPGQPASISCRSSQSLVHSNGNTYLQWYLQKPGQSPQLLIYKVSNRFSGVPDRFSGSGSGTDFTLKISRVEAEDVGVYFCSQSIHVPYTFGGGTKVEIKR and print it.
18.6
